tested on: NCI/ADR-RES ovarian; experiment: NCI tumour cell line growth inhibition, 48 h
MEASUREMENT_TYPE: TGI (µM)
Give bare numbers, in µM.

> print(dat)
                                   compound  reported.result
1  O=C1c2ccc(O)cc2OC(c2cc(O)c(O)c(O)c2)C1O (stereo unspecified)             52.9
2         C[N+](C)=C/C=C(\Cl)c1ccc2ccccc2c1             17.3
3  Clc1ccc(/C=C2\CCCC3C2=Nc2ccccc2NC3c2ccc(Cl)cc2)cc1 (stereo unspecified)             52.3
4  Cn1cc(C2=C(c3cn(CCSC(=N)N)c4ccccc34)C(=O)NC2=O)c2ccccc21               25

Now, please, on to the next compound.
Ask | Provide the reported TGI (system: NCI/ADR-RES ovarian) for O=C(N=C1N(c2ccccc2)C(=O)C(=O)N1c1ccccc1)c1ccccc1
Reply | 25.8

---

Please go through the items and note down their TGI.
tested on: HOP-92 NSCLC; test: NCI tumour cell line growth inhibition, 48 h

As a guide, the following entries are already answered.
> print(dat)
                                   molecule  reported.result
1  COC(=O)CC1C(C)(C)C(=O)C2CC3=C4CC(=O)OC(c5ccoc5)C4(C)CCC3C1(C)C2=O (stereo not given)         > 100 µM
2  COc1cccc(C2C(C(=O)O)=C(CO)Oc3cc4c(cc32)OCO4)c1OC (stereo not given)         > 100 µM
3  C[C@]12CCC3c4ccc(O)cc4CCC3C1CC[C@@]2(O)C#Cc1ccc(C#C/C=C\C#Cc2ccccc2N)cc1 (stereo not given in full)          46.5 µM
4                O=C1C=CC(=O)c2ccc(=O)ccc21          3.72 µM
5             CCCCCCc1nn2c(-c3ccncc3)nnc2s1          > 10 µM

Could you tell me TGI for each of these molecules? They are listed below.
1. COc1cccc(NC(=O)CC(=O)N2NC(c3ccccc3)C(N=Nc3cccc(C(=O)O)c3)C2=O)c1 (stereo not given)
2. CCc1n[nH]c(=O)n1NC(=O)CCCC(=O)O
3. CCN(CC)CCOc1ccc(/C=C2\CC3C4CC=C5C[C@@H](N6CCCC6)CC[C@]5(C)C4CC[C@]3(C)[C@H]2OC(C)=O)cc1OC (stereo not given in full)
4. COc1ccc(NC(=O)C2C(=O)N(c3ccc(OC)cc3)C(=O)/C2=N\N)cc1 (stereo not given)

Reply |
1. > 100 µM
2. > 100 µM
3. 1.88 µM
4. > 100 µM

Ask | Give the reported value of TGI for this record: COc1ccc(-c2cc(-c3ccc(Nc4ccnc5cc(C(F)(F)F)ccc45)cc3)nc(N)c2C#N)cc1
Reply | 90 µM

---

test system: NCI-H460 lung; test: NCI tumour cell line growth inhibition, 48 h
Please go through the items and note down their TGI.
Answers are plain numbers, in µM.

As a guide, the following entries are already answered.
> print(dat)
                                   compound  measurement.type  reported.result
1  CCCc1cc(=O)oc2c3c(c4c(c12)OC(C)(C)CC4)O[C@H](C)[C@@H](C)[C@H]3O               TGI             41.7
2  O=C1c2ccc(O)cc2OC(c2cc(O)c(O)c(O)c2)C1O (stereo unspecified)               TGI             39.5
3  CC(C)=CC1CCc2ccccc2N1S(=O)(=O)c1ccc(C)cc1 (stereo unspecified)               TGI             8.02
4  CC(C)NCC(O)c1cc(OCc2ccccc2)c(OCc2ccccc2)cc1NC(=O)CCC(=O)O (stereo unspecified)               TGI             3.71

Now, please, on to the next compound.
Ask | Give the reported value of TGI for this record: CCCCCCC1NN(C(C)=O)C(CCCCCC)NN1C(C)=O (stereo unspecified)
Reply | 33.7

---

test system: SF-539 CNS; assay: NCI tumour cell line growth inhibition, 48 h
Please go through the items and note down their TGI.
Give bare numbers, in µM.

As a guide, the following entries are already answered.
MOLECULE	UNIT_LABEL	REPORTED_RESULT
NC(=O)c1cccc(N2Cc3ccccc3OC3=C2C(=O)c2c(O)ccc(O)c2C3=O)c1	µM	2.63
Nc1ccn(C2OC(CO)C3[O][Sn]([c]4ccccc4)([c]4ccccc4)[O]C32)c(=O)n1 (centres undefined)	µM	20.5
c1ccc2cc(CN3CCC(C4CCN(Cc5ccc6ccccc6c5)CC4)CC3)ccc2c1	µM	4.15

Ask | Give the reported value of TGI for this record: CCCCCCC[C@@H](O)CC(=O)NC(CC(C)C)C(=O)NC(CCC(=O)O)C(=O)NC1C(=O)NC(C(C)C)C(=O)NC(CC(C)C)C(=O)NC(CO)C(=O)NC(CC(C)C)C(=O)NC(CO)C(=O)NC(C(C)CC)C(=O)OC1C (some centres undefined)
Reply | 4.77

---

tested on: COLO 205 colon; test: NCI tumour cell line growth inhibition, 48 h; in the data active means GI50 below about 0.43 µM; inactive means the rest
Permitted responses: active, inactive

Below, 5 molecules whose answers are already recorded.
> print(dat)
                                   molecule  category.label
1  CN([O-])c1nc(N(C)[O-])nc(N2CCOCC2)n1.CN([O-])c1nc(N(C)[OH2+])nc(N2CCOCC2)n1.[Fe+3]        inactive
2  O=C(Nc1cccc(-c2cccc(F)c2)c1)C1CCN(Cc2cccc3cccnc23)CC1        inactive
3  COc1ccc(S(=O)(=O)Nc2cc(/C=C\c3cc(OC)c(OC)c(OC)c3)cc(OC)c2OC)cc1          active
4  Cc1ccc(C2=C(c3ccc(C)cc3)C3(c4ccc(C)cc4)[C@@H](C#N)[C@H](C#N)C2(c2ccc(C)cc2)S3=O)cc1 (stereo partly specified)        inactive
5  Clc1ccc(C2c3ccccc3-c3nccn32)c(Cl)c1 (stereo unspecified)        inactive

Moving on to another molecule below.
Ask | # fetch the recorded call for FC(F)(F)c1ccc(-c2cncn2-c2ccccc2)cc1 here
Reply | inactive

---

test system: OVCAR-5 ovarian; experiment: NCI tumour cell line growth inhibition, 48 h; in the data active means GI50 below about 0.43 µM; inactive means the rest
Permitted responses: active, inactive

Below, 4 compounds whose answers are already recorded.
> print(dat)
                                   compound  category.label
1  COc1cc(O)c2c(=O)c(OC)c(-c3ccc(OC)c(OC)c3)oc2c1.[Co]        inactive
2  CCN(CC)c1ccc(/C=C2\SC(=O)C(Nc3nnc(-c4cccnc4SCc4ccccc4)o3)C2=O)cc1 (stereo not given)        inactive
3  COc1ccc2c(c1)C(=O)c1c-2n(CCCNCCO)c(=O)c2ccccc12          active
4  O=C1c2ccccc2C(=O)c2c(N=Nc3[nH]c(=S)[nH]c3O)cccc21        inactive

Moving on to another compound below.
Ask | # fetch the recorded call for CCCCCCCCCCCC[n+]1c(C)cc(N)c2ccccc21 here
Reply | inactive

---

List of GI50 tested on NCI-H460 lung.

As a guide, the following entries are already answered.
MOLECULE	REPORTED_RESULT
COC(=O)[C@@H](C[C@H](Cc1ccccc1)NC(=O)c1csc([C@@H](C[C@H](C(C)C)N(C)C(=O)[C@@H](NC(=O)[C@H]2CCCCN2C)C(C)C)OC(C)=O)n1)NC(=O)OCc1ccccc1	< 0.833 nM
COc1ccc(/C=C/C(=O)c2cccc(B(O)O)c2)cc1O	3110 nM
FC(F)(F)c1cccc(Nc2nc3ccccc3nc2Nc2cccc(C(F)(F)F)c2)c1	457 nM
CN1CCN(CCn2c3c4ccccc4ccc3c3oc(=O)c4ccccc4c32)CC1	1460 nM
Cc1ccc(-c2cc(C(=O)N3N=C(c4ccc(N)cc4)CC3c3ccc(Cl)cc3)c3ccccc3n2)cc1 (stereo not drawn)	3510 nM

Could you tell me GI50 for each of these molecules? They are listed below.
1. COc1ccc(/C=N/C2=C(C#N)C(c3ccccc3)c3c(ccc4ccccc34)O2)cc1 (stereo not drawn)
2. CCN(CC)CCOc1ccc(/C=C2\CC3C4CC=C5C[C@@H](N6CCCC6)CC[C@]5(C)C4CC[C@]3(C)[C@H]2OC(C)=O)cc1OC (stereo partly drawn)
3. Cc1ccc(C2=C(c3ccc(C)cc3)C3(c4ccc(C)cc4)[C@@H](C#N)[C@H](C#N)C2(c2ccc(C)cc2)S3=O)cc1 (stereo partly drawn)

Reply |
1370 nM
1600 nM
> 100000 nM

---

Please go through the items and note down their TGI.
tested on: NCI-H226 lung; test: NCI tumour cell line growth inhibition, 48 h

> print(dat)
                                   compound  reported.result
1  Cc1nc2cc(-n3c(-c4ccc(F)cc4)nc4ccccc4c3=O)ccc2n1Cc1ccccc1          6.51 µM

Could you tell me TGI for each of these compounds? They are listed below.
1. COc1cccc2c1-c1ccccc1C2=O
2. NC(N)=C1CN(C2CCCCC2)C(=O)NC1=O
3. CC(C)c1cc(C(F)(F)F)nc(NNc2nc(C(C)C)cc(C(F)(F)F)n2)n1
4. COc1ccc(OC)c(N2C(=O)/C(=C\c3ccccc3)SC2c2cc(OC)c(OC)c(OC)c2)c1 (stereo not given)
5. O[N+]1=CC=CCC1=S.On1ccccc1=S.[Zn]

Reply |
1. > 100 µM
2. > 100 µM
3. > 100 µM
4. > 100 µM
5. 3.04 µM
